growth inhibition values by entry
Assay: NCI Yeast Anticancer Drug Screen. Data for the mec2-1 strain (AID 157)
Settings: S. cerevisiae mec2-1 strain, hits give high values; at 50.0 µM unless noted
The panel holds about 79,000 compounds, 15% with a hit somewhere; the sample as a whole holds those more often. The source made the active and inactive calls. No stated cut-off is given here; in the data, active means growth inhibition above about 70%; inactive means the rest.

{"columns": ["Compound", "growth inhibition"],
 "data": [
  ["O=c1ccc(-c2ccc(-n3ccnc3)cc2)nn1CCO", "-49.5% (inactive)"],
  ["CCOC(=O)CC1(N)CC2c3ccccc3OC(=O)C2C(=O)N1 (configuration not stated)", "15.1% (inactive)"],
  ["N.N.N.N.O=C(O)C1OCCOCCOC(C(=O)O)C(C(=O)O)OCCOCCOC1C(=O)O.[Pt+2].[Pt+2] (configuration not stated)", "-14% (inactive)"],
  ["CCCC(=O)NC1CCc2cc(OC)c(OC)c(OC)c2-c2ccc(OC)c(=O)cc21 (configuration not stated)", "-40.5% (inactive)"],
  ["COCCCCCCCCCCCC(=O)O", "1.3% (inactive)"],
  ["COC(=O)C(Br)C(CCCN1C(=O)c2ccccc2C1=O)OC (configuration not stated)", "7.55% (inactive)"]
]}

Req: Request the reported growth inhibition associated with c1ccc2c(c1)Cc1cc3ccccc3cc1C2
Resp: -44.9% (inactive)

Req: // returns reported growth inhibition for input O=C(OC1C2C=COC(OC3OC(CO)C(O)C(O)C3O)C2C2(CO)OC12)c1ccc(O)cc1 (configuration not stated)
Resp: -6.45% (inactive)

Req: Item NC(CCn1cnc2c(=O)[nH]cnc21)C(=O)O (configuration not stated) has what recorded growth inhibition?
Resp: 10.3% (inactive)

Req: What does the record list as growth inhibition for OCCN/N=C/c1ccncc1 ?
Resp: -52.2% (inactive)

Req: Form field: reported growth inhibition of N#CC(c1ccccc1)c1ccc(C(c2ccccc2)(c2ccccc2)C(C#N)c2ccccc2)cc1 (configuration not stated)
Resp: 8.55% (inactive)

Req: What growth inhibition value was documented for this compound, CCOP(=O)(OCC)C(C)(CC)N/C(=N/C(NC(C)=O)(C(F)(F)F)C(F)(F)F)NC1=NC(C(F)(F)F)(C(F)(F)F)N=C(C(F)(F)F)O1 (configuration not stated) ?
Resp: 4.65% (inactive)

Req: Consider the compound shown here: CC(C)CC(C(=O)NC1CCCCC1)N1C(=O)c2ccccc2C1=O (configuration not stated) What is its recorded growth inhibition?
Resp: 1.9% (inactive)

Req: Using the record for N#CC1=C(NC(N)=O)CCCC1 , report its growth inhibition.
Resp: 36.7% (inactive)

Req: Look up growth inhibition for this compound: S=c1c(-c2ccccc2)cnc2sccn12
Resp: 29.8% (inactive)

---

Assay: NCI Yeast Anticancer Drug Screen. Data for the rad50 strain (AID 155);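 further: 0% = growth of vehicle-only cultures of the same strain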
Details: S. cerevisiae rad50 strain growth inhibition, hits give high values; at 50.0 µM unless noted
About 79,000 compounds went through this panel and 15% of them were active in at least one assay; those are over-represented in the sample as a whole.
Below: a set of entries, each annotated with reported growth inhibition.
Reply numerically in %, unit not repeated.

{"columns": ["Compound", "Quantity name", "Assay value"],
 "data": [
  ["CCCCNC(=S)NNC(=O)c1ccncc1", "growth inhibition", -0.35],
  ["NC(=S)Nc1nnc(-c2ccc(-c3nnc(NC(N)=S)o3)cc2)o1", "growth inhibition", 18.4],
  ["O=C1CCC(c2nc3ccccc3[nH]2)N1Cc1ccccc1 (stereo not given)", "growth inhibition", 13.9],
  ["Cc1cc(C)c(-c2c(C)cc(C)c(C(=O)c3ccc([N+](=O)[O-])cc3)c2C)c(C)c1C(=O)c1ccc([N+](=O)[O-])cc1", "growth inhibition", 25.7],
  ["O=C(O)C1Cc2c([nH]c3ccccc23)CN1 (stereo not given)", "growth inhibition", 8.45],
  ["CC(O)c1ccc[cH-]1.CC(O)c1ccc[cH-]1.[Fe+2] (stereo not given)", "growth inhibition", -22],
  ["CCOc1ccc(OCC)cc1", "growth inhibition", 3.6],
  ["CC1CCC2(OC1)OC1CC3C4CCC5CC(O)CCC5(C)C4C(O)CC3(C)C1C2C (stereo not given)", "growth inhibition", 42.5],
  ["O=C(Nc1ccccc1)c1cc(S(=O)(=O)Nc2n[nH]c(=O)[nH]2)c(SSc2cc(Cl)c(C(=O)Nc3ccccc3)cc2S(=O)(=O)Nc2n[nH]c(=O)[nH]2)cc1Cl", "growth inhibition", 18.8],
  ["O=C(NCCCN1CCN(CCCNC(=O)Nc2ccc(N=Nc3ccccc3)cc2)CC1)Nc1ccc(N=Nc2ccccc2)cc1", "growth inhibition", -0.95]
]}

Req: // growth inhibition lookup, key: Cc1cc(C)c(S(=O)(=O)Oc2ccccc2)c(C)c1
Resp: -14.9

Req: Name the reported growth inhibition value associated with the compound CC1(C)OC(=O)N=C1c1ccccc1Cl
Resp: -18.1

Req: What does the data say about its growth inhibition? Entry: Cc1cc([N+](=O)[O-])ccc1P(=O)(O)O
Resp: 8.55

Req: Given the compound CN(C)C(=S)Oc1c([N+](=O)[O-])cc([N+](=O)[O-])cc1C(C)(C)C , what is its reported growth inhibition?
Resp: 94

Req: Data request, read-out growth inhibition, for Nc1nc(N)c(CCCCc2ccccc2)c(Cc2ccccc2)n1
Resp: -10.2

Req: Give the measured growth inhibition of O=CNNc1nn2cnnc2c2ccccc12 .
Resp: -1

Req: Using the record for Cc1nc(-c2ccc(Cl)cc2)cn2c1nc1ccccc12 , report its growth inhibition.
Resp: -5.5

Req: I would be grateful if you could share the reported growth inhibition for CC1(C)N=C(Oc2cc(Cl)cc(Cl)c2)NC(=S)N1 .
Resp: 11.8

Req: Consider the compound CCN(CC)c1ccc(/C=C(\C)c2nc3ccc(C)cc3[nH]2)cc1 and give its measured growth inhibition.
Resp: -5.25

Req: Quick check: growth inhibition of O=CC(=O)O ?
Resp: 28.1

Req: Look up growth inhibition for this compound: COc1cc2ccc3c4ccccc4cnc3c2cc1OC
Resp: 8.1

Req: Could you share which growth inhibition value was measured for CN(C)CCCNC(=O)CCNC(=O)c1cc(NC(=O)c2cc(NC(=O)c3cc(NC(=O)CCCNC(=O)c4cc(NC(=O)c5cc(NC(=O)c6nccn6C)cn5C)cn4C)cn3C)cn2C)cn1C ?
Resp: 7.55

Req: Which growth inhibition reading was recorded for the compound COC(=O)CCC(C)C1CCC2(C)C3=C(C(=O)CC12C)C1(C)CCC(O)C(C)(C)C1=C(O)C3 (stereo not given) ?
Resp: 81.7

Req: Would you kindly share the measured growth inhibition for CC(=O)C(C)(CCN(C)C)c1ccccc1 (stereo not given) ?
Resp: 6.5

Req: Dear colleague, I am looking for the recorded growth inhibition of the following compound: COc1nc(NC2OC(CO)C(O)C(O)C2O)c(I)c(=O)[nH]1 (stereo not given)
Resp: 5.3

Req: Quick one: growth inhibition of COc1ccc2c(c1)OC[C@@H]1c3cc(NS(=O)(=O)c4ccccc4)cc(OCc4ccccc4)c3O[C@H]21 ?
Resp: -16.4

Req: Recorded growth inhibition for O=C(O)/C=C\C(=O)Nc1ccc2c(c1)Cc1cc(O)ccc1-2 , please?
Resp: 7.95

Req: // growth inhibition lookup, key: CC1CCC(c2ccccc2)(c2ccccc2)C1=O (stereo not given)
Resp: 11.8

Req: State the recorded growth inhibition for this entry: CCNC(=O)c1ccc(C(C)C)cc1
Resp: 8.4

Req: Need growth inhibition, item O=C(O)C1CCC(=O)N1Cc1c[nH]c2ccccc12 (stereo not given)
Resp: -2.2

Req: What value of measured growth inhibition is listed for CN(C)Cc1ccccc1 ?
Resp: 28.8

Req: Sample CCC1=C(c2ccc(OC)cc2)CC[C@@]2(CCNC2=O)[C@@H]1C — what was its growth inhibition?
Resp: 4.8

Req: Which growth inhibition is reported for this compound? COc1c2c(c(OC)c3c(=O)cc(C/C(=N/NC(=O)C[n+]4ccccc4)C(=O)Nc4cc(C)ccc4C)oc13)OCO2
Resp: -13.4

Req: Which value of growth inhibition has been reported for O=C(O)CC(O)(CC(=O)O)C(=O)O in the records?
Resp: 25

Req: Which measured growth inhibition value corresponds to COc1ccc2c(c1)Cc1cc(NC(C)=O)ccc1-2 ?
Resp: -4.55

Req: Look up growth inhibition for this compound: Clc1ccc(-c2cn3c(nc4ccccc43)c(-c3ccccc3)n2)cc1
Resp: -7.65

Where do the numbers come from? From PubChem BioAssay (NCI).
